- method.description: In vivo pharmacokinetic study after intragastric administration in rats
- condition.description: both sexes, Wistar, rat, plasma, po, 25 mg·kg^−1 of ABZ, n = 6, read-out: MRT0–∞
- Method: Eighteen Wistar rats were selected and divided into three groups, with half of them being male and the other half being female. Each group was given a dose of 25 mg·kg^−1 of ABZ by intragastric administration. […] For sample preparation, plasma was thawed, and 50 μL of plasma was mixed with 150 μL of methanol. […] The drug content was quantified using UHPLC-MS/MS (UltiMate 3000 and Q-Exactive Orbitrap MS, Thermo Scientific, USA). Pharmacokinetic parameters were calculated using DAS 2.0 software. […]
measurement.kind: MRT inf (h)

compound: CCCSc1ccc2nc(NC(=O)OC)[nH]c2c1 [ABZ, albendazole]
data.value: 6.55
